MIC Values, MRSA 1556 reference
tested on: MRSA isolate ATCC BAA-1556; assay: MIC, CLSI-guided broth susceptibility testing, MRSA 1556; type: cell-based, Staphylococcus aureus; details: MRSA isolate ATCC BAA-1556
readout_kind: MIC Values, MRSA 1556

compound="CCCCCCCCCCCCCCCC(=O)NCCNC1(C)CC(OC2C(Oc3c4cc5cc3Oc3ccc(cc3Cl)C(O)C3NC(=O)C(NC(=O)C5NC(=O)C(CC(N)=O)NC(=O)C(NC(=O)C(CC(C)C)NC)C(O)c5ccc(c(Cl)c5)O4)c4ccc(O)c(c4)-c4c(O)cc(O)cc4C(C(=O)O)NC3=O)OC(CO)C(O)C2O)OC(C)C1O (centres unmarked)" result="0.250 µg/mL"
compound="CCCCCCCCCCCC(=O)NCCNC1(C)CC(OC2C(Oc3c4cc5cc3Oc3ccc(cc3Cl)C(O)C3NC(=O)C(NC(=O)C5NC(=O)C(CC(N)=O)NC(=O)C(NC(=O)C(CC(C)C)NC)C(O)c5ccc(c(Cl)c5)O4)c4ccc(O)c(c4)-c4c(O)cc(O)cc4C(C(=O)O)NC3=O)OC(CO)C(O)C2O)OC(C)C1O (centres unmarked)" result="0.023 µg/mL"
